This collection of values is drawn from patent US20060167057A1.

# Comparison with the Binding of Phenylalanine listing for each entry below
# measurement-target: L1 transport system (large neutral amino acid carrier, L1-system carrier) (Rattus norvegicus)
# Construct: functionality of their endogenous transporters such as the L1-system carrier; endogenous in cells; host or cells: rat primary cerebrovascular (brain microcapillary) endothelial cells, RBEC
# Sequence (Q63016 whole entry): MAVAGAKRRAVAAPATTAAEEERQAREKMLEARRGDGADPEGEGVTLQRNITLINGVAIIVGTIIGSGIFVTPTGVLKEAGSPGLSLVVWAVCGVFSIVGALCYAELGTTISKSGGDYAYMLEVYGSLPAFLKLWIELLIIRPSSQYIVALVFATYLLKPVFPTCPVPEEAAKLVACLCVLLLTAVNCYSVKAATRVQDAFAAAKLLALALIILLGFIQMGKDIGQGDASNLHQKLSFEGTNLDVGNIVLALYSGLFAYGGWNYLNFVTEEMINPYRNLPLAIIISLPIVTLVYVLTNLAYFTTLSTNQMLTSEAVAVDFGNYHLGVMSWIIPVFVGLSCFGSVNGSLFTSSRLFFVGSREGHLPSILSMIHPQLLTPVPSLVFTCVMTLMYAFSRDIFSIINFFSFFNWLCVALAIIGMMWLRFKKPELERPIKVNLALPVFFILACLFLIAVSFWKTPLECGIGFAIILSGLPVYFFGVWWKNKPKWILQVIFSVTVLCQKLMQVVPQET
# Sequence (Q794F9 whole entry partner): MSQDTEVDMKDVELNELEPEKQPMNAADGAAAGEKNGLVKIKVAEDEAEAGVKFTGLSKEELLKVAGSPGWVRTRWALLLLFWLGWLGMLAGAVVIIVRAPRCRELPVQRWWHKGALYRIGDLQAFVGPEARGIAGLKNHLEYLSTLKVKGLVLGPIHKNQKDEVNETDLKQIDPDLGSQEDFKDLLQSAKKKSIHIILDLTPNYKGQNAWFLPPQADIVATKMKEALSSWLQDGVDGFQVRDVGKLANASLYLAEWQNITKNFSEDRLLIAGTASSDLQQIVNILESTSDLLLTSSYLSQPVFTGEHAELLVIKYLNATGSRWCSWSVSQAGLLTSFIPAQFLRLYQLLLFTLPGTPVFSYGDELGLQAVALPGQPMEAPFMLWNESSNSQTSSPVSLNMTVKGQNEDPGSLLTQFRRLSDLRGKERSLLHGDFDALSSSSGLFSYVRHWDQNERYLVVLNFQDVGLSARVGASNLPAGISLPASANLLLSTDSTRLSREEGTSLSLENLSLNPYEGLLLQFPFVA
# assay-explanation: Competitive binding assay to the brain L1 transport system (L-[U-14C]phenylalanine on rat primary cerebrovascular endothelial cells)
# reported-conditions: 10^−5 M

Sample answers from the record:
| compound | reading |
| --- | --- |
| NC(Cc1ccc(-c2ccc(CSc3nnnn3CC(=O)O)cc2)cc1)C(=O)O (stereo not drawn) | 0 (X < 0 Rank 0) |
| NC(Cc1cccc(CSc2ncccc2C(=O)O)c1)C(=O)O (stereo not drawn) | 0 (X < 0 Rank 0) |
| NC(Cc1ccc(-c2ccc(CN3CCN(c4cccc(Cl)c4)CC3)cc2)cc1)C(=O)O (stereo not drawn) | 2 (10 < X < 20 Rank 2) |

The reported Comparison with the Binding of Phenylalanine of the compound NC(Cc1cccc(CSc2nnc(-c3ccccc3)[nH]2)c1)C(=O)O (stereo not drawn) was 3 (X > 20 Rank 3)

The reported Comparison with the Binding of Phenylalanine of the compound NC(Cc1cccc(CSc2nccc(C(F)(F)F)n2)n1)C(=O)O (stereo not drawn) was 2 (10 < X < 20 Rank 2)

The reported Comparison with the Binding of Phenylalanine of the compound NC(Cc1cccc(CSc2ncnc3[nH]ncc23)n1)C(=O)O (stereo not drawn) was 3 (X > 20 Rank 3)
